Target: murine Pgp (mdr1a) (Mus musculus)
Construct: expressed in transfected cells; host or cells: LLC-PK1 pig kidney epithelial cells (LLC-PK1-mdr1a), available in the INRA laboratory
Sequence (P21447 whole entry): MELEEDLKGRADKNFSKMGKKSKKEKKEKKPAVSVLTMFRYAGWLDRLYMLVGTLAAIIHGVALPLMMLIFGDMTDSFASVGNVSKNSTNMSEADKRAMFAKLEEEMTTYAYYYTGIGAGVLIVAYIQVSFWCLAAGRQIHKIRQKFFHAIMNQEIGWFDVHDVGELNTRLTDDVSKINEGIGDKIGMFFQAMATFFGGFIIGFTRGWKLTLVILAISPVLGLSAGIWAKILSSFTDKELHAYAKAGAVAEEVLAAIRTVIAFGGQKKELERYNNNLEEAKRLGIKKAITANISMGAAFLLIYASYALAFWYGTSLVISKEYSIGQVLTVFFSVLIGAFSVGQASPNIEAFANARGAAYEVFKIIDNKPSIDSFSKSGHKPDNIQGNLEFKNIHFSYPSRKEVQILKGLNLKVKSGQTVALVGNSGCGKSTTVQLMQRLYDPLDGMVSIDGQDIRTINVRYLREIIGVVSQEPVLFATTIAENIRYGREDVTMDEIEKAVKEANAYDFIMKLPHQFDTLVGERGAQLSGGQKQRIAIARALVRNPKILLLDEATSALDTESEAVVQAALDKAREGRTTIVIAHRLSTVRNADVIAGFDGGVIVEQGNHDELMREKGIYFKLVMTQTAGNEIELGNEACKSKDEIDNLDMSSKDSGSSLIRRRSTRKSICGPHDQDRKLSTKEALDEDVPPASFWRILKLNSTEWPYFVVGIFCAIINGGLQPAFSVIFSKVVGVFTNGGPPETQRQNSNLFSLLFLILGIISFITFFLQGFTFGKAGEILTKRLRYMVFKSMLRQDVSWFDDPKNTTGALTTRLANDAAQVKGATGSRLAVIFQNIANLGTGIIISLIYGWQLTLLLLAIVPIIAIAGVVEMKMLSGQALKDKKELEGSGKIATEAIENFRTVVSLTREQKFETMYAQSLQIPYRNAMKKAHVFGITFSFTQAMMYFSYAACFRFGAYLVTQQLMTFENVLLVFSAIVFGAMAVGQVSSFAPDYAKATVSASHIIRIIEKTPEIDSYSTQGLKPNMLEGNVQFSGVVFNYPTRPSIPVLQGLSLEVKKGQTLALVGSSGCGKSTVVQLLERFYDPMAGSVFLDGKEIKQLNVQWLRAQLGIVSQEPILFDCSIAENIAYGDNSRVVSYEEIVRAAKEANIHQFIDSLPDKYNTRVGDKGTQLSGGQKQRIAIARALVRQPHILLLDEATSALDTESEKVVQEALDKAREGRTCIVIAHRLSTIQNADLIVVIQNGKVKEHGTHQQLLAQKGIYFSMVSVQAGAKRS
Test: Rhodamine 123 transport test in LLC-PK1-mdr1a cells overexpressing murine Pgp
Format: cell-based
Conditions: Table 1; LLCPK1-mdr1a cells; read-out: EC50: effective concentration for inhibiting 50% of transport of rhodamine 123 by murine Pgp
VALUE TYPE: EC50

# COMPOUND, VALUE TYPE, REPORTED
measured = [
    ("CCC(C)C1OC2(CCC1C)CC1CC(CC=C(C)C(O)C(C)C=CC=C3COC4C(O)C(C)=CC(C(=O)O1)C34O)O2 (stereo not shown) [Ivermectin aglycone, 22,23-dihydroavermectin B1 aglycone]", "EC50", "1000 nM"),
]
